# target.of.assay: Aspartate--tRNA(Asp/Asn) ligase (Mycobacterium tuberculosis (strain ATCC 25618 / H37Rv)); note: in the data most compounds retested in dose-response had high values
# test.protocol: Assay for Asp RNA synthetase-1 from Mycobacterium tuberculosis
# Type: functional
# Parameters: scale not given: direction of the effect not stated beside the values
# cond: 30 µM
Below: a set of entries, each annotated with reported Percent Effect.
measure.name: Percent Effect (%)

> print(dat)
                                    molecule  measured
 1  CN(Cc1nnc(C2CC2)n1C)C1CCN(Cc2ccccc2F)C1 (stereo unspecified)     -3.49
 2       Cc1nn(C)c(N(C)C)c1CNCc1ccccc1CN(C)C     -4.76
 3  COC(CNC(=O)N1CCC(n2cncn2)CC1)c1ccccc1 (stereo unspecified)     -3.54
 4      O=C(NCCn1ccnc1)c1ccn(-c2cccc(F)c2)n1      5.59
 5  CC(C)NC(=O)C(c1ccccc1)N1CCn2c(nnc2C2CC2)C1 (stereo unspecified)     -1.48
 6      CCOc1ccc(C#N)cc1NCC(=O)Nc1cc(F)ccc1F     -5.91
 7       Cc1nnc2n1CCN(Cc1csc(Cc3ccccc3)n1)C2     -4.28
 8      COCC(=O)N1CCC2(CCN(Cc3ccccn3)CC2)CC1      6.21
 9  Cc1occc1C(=O)N1CCC2(CC1)NC(=O)CC2c1cnn(C)c1 (stereo unspecified)    -0.199
10  CC(=O)N1CCN([C@@H]2CC[C@@H](NC(=O)c3cncc(C)c3)[C@H]2O)CC1      -1.5
11  Fc1cccc(-c2nc(CN3CCOC(Cn4cncn4)C3)co2)c1 (stereo unspecified)        -4

###

# target.of.assay: Tyrosyl-tRNA synthetase, putative (Trypanosoma cruzi (strain CL Brener))
# test.protocol: Trypanosoma cruzi tyrosyl tRNA synthetase (TcYRS) _High Tyrosine SOP; note: in the data most compounds retested in dose-response had high values
# Type: functional
# Set-up: scale not given: direction of the effect not stated beside the values
# cond: 30 µM
Below: a set of entries, each annotated with reported Percent Effect.
measure.name: Percent Effect (%)

> print(dat)
                                    molecule    measure.name  readout.units  measured
 1  c1ccc(CO[C@H]2CO[C@@]3(CCN(Cc4ccoc4)C3)C2)nc1  Percent Effect              %     -1.06
 2      CCc1cnc(N2CC3(CCN(Cc4ccsc4)C3)C2)nc1  Percent Effect              %      8.95
 3       c1ccc(OC[C@@H]2CCC[C@@]23CNCCO3)nc1  Percent Effect              %      1.08
 4  COCC(C)NC(=O)c1cn(C(C)(C)C)c2ncccc12 (stereo not drawn)  Percent Effect              %         0
 5  O=C(c1cccnc1)N1C[C@@H]2CC[C@H](C1)N(Cc1ncc[nH]1)C2  Percent Effect              %      7.53
 6   O=C(Cc1ccccc1)N1CCN(Cc2noc(C3CC3)n2)CC1  Percent Effect              %      7.29
 7  O=C(Cc1ccc(O)c(Cl)c1)N1CCN(CC2CC2)[C@@H]2CS(=O)(=O)C[C@@H]21  Percent Effect              %      -2.1
 8       COC[C@]12COC[C@H]1CN(Cc1cccnc1OC)C2  Percent Effect              %      7.41
 9  Cc1noc(C)c1CN1CCO[C@H]2CN(CC3CC3)C[C@H]21  Percent Effect              %      8.95
10     CO[C@@H]1CC[C@H]2[C@H]1OCCN2CC1CCOCC1  Percent Effect              %      4.95
11  CC(C)CN1CCC2(CC1)C(=O)Nc1ccc(C(=O)N(C)C)cc12  Percent Effect              %       4.3
12  CS(=O)(=O)N1CCC(C(=O)N2CCC3(CC2)OCCCO3)CC1  Percent Effect              %      6.35
13  CC(C)CN1C[C@H]2C[C@H](C(=O)Nc3cccnc3)[C@@H](C1)O2  Percent Effect              %      1.08
14  COCC(=O)NC(C)Cc1cccc(Br)c1 (stereo not drawn)  Percent Effect              %      7.35
15  Cc1noc(C)c1CN1CCCC2(CCN(C(=O)NC3CC3)C2)C1 (stereo not drawn)  Percent Effect              %      13.5
16  Cc1ncsc1CN1CC[C@H]2C[C@H](c3ccncn3)O[C@@H]2C1  Percent Effect              %      1.06
17  O=C(CN1CCN(C(=O)Cc2ccc3c(c2)OCCO3)CC1)NC1CC1  Percent Effect              %       6.8
18  Cc1noc(C)c1CN1CC[C@H]2C[C@@H](c3nccs3)O[C@@H]2C1  Percent Effect              %      1.08
19  CCN1CCC2(CCC1=O)CN(c1ccnc(SC)n1)CCN2C (stereo not drawn)  Percent Effect              %      3.83
20  O=C1CC[C@H]2[C@H](CCN2Cc2ccccn2)N1CC1CCOCC1  Percent Effect              %    -0.966
21  CCN(Cc1cccnc1)CC1CCCO1 (stereo not drawn)  Percent Effect              %      2.15
22  O=C1[C@H]2CN(Cc3cccs3)C[C@H]2CN1c1cncnc1  Percent Effect              %      2.15
23  c1cncc(N2CCCC3(CN(Cc4cccs4)CCO3)C2)c1 (stereo not drawn)  Percent Effect              %     -1.08

###

# target.of.assay: Shiga toxin 2 (Escherichia coli O157:H7) (UniProt P09385+P09386)
# test.protocol: E. coli 0.157:H7 Shiga Toxin SOP - stx2 screening assay
# Type: functional
# Set-up: scale not given: direction of the effect not stated beside the values
# cond: 30 µM
Below: a set of entries, each annotated with reported Percent Effect.
measure.name: Percent Effect (%)

> print(dat)
                                    compound                           target.of.assay    measure.name  measured
 1  O=C(NCc1ccccn1)[C@@H]1COC[C@H]2CN(C3CCOCC3)C[C@H]21  Shiga toxin 2 (Escherichia coli O157:H7) (UniProt P09385+P09386)  Percent Effect     -6.42
 2  Cc1cc(C)n(C2CCCN(C(=O)c3ccc(F)cc3F)C2)n1 (stereo unspecified)  Shiga toxin 2 (Escherichia coli O157:H7) (UniProt P09385+P09386)  Percent Effect    -0.315
 3  CC(CNc1cncc(-n2cccn2)n1)N(C)c1ccccc1 (stereo unspecified)  Shiga toxin 2 (Escherichia coli O157:H7) (UniProt P09385+P09386)  Percent Effect      7.51
 4  Cc1nn(C)c(C)c1C1COCCN1C(=O)c1cnc(N)c(Cl)c1 (stereo unspecified)  Shiga toxin 2 (Escherichia coli O157:H7) (UniProt P09385+P09386)  Percent Effect     -23.7
 5  Cc1cc(C)n(CC2CCCN2CC(=O)NC2CCOCC2)n1 (stereo unspecified)  Shiga toxin 2 (Escherichia coli O157:H7) (UniProt P09385+P09386)  Percent Effect     -26.7
 6       Cc1nccn1CCCC(=O)N1CCC(Nc2cccnn2)CC1  Shiga toxin 2 (Escherichia coli O157:H7) (UniProt P09385+P09386)  Percent Effect     -6.43
 7  CC(C)c1nn(C)c(N(C)C)c1CNCC(O)c1ccccc1F (stereo unspecified)  Shiga toxin 2 (Escherichia coli O157:H7) (UniProt P09385+P09386)  Percent Effect     -23.3
 8  Cc1cc(C)c(CNC(=O)N2CCN(c3ncccn3)CC2)c(=O)[nH]1  Shiga toxin 2 (Escherichia coli O157:H7) (UniProt P09385+P09386)  Percent Effect     -6.87
 9  Cc1cnn(CC2CCCN2C(=O)c2ccc(C(N)=O)cn2)c1 (stereo unspecified)  Shiga toxin 2 (Escherichia coli O157:H7) (UniProt P09385+P09386)  Percent Effect      11.5
10  Cc1noc(C(C)N2CCN(CCC(=O)N3CCCCC3)CC2)n1 (stereo unspecified)  Shiga toxin 2 (Escherichia coli O157:H7) (UniProt P09385+P09386)  Percent Effect      7.71
11  O=C(Nc1cc(F)ccc1OCC1CCCO1)c1ccccn1 (stereo unspecified)  Shiga toxin 2 (Escherichia coli O157:H7) (UniProt P09385+P09386)  Percent Effect      37.1

###

# target.of.assay: Shiga toxin 2 (Escherichia coli O157:H7) (UniProt P09385+P09386)
# test.protocol: E. coli 0.157:H7 Shiga Toxin SOP - stx2 screening assay
# Type: functional
# Design: scale not given: direction of the effect not stated beside the values
# cond: 30 µM
Below: a set of entries, each annotated with reported Percent Effect.
measure.name: Percent Effect (%)

> print(dat)
                                    compound                           target.of.assay  measured
 1  O=C(CCc1ccc(=O)[nH]n1)N1CCCC(COc2ccc(F)cc2)C1 (stereo not drawn)  Shiga toxin 2 (Escherichia coli O157:H7) (UniProt P09385+P09386)      6.15
 2   COc1cccc(COCC(=O)N2CCN(CC(C)(C)O)CC2)c1  Shiga toxin 2 (Escherichia coli O157:H7) (UniProt P09385+P09386)      9.82
 3  CN(Cc1cccc(F)c1)C(=O)CN1CCCC1CCc1ccccc1 (stereo not drawn)  Shiga toxin 2 (Escherichia coli O157:H7) (UniProt P09385+P09386)     -33.4
 4  Cc1nc(CN(C)C2CCN(Cc3nc4ccccc4s3)C2)no1 (stereo not drawn)  Shiga toxin 2 (Escherichia coli O157:H7) (UniProt P09385+P09386)     0.376
 5  O=C(c1cccc(S(=O)(=O)NCCCc2ccco2)c1)N1CCOCC1  Shiga toxin 2 (Escherichia coli O157:H7) (UniProt P09385+P09386)    -0.897
 6         Cc1ncc2c(n1)CCN(Cc1nc3ccccc3o1)C2  Shiga toxin 2 (Escherichia coli O157:H7) (UniProt P09385+P09386)     -21.4
 7  Cc1cc(N2CCCN(C(=O)Cc3ccc(O)c(Cl)c3)CC2)ccn1  Shiga toxin 2 (Escherichia coli O157:H7) (UniProt P09385+P09386)     -29.5
 8  CCS(=O)(=O)c1ccccc1C(=O)NCc1ccnc(N(C)C)c1  Shiga toxin 2 (Escherichia coli O157:H7) (UniProt P09385+P09386)     -44.7
 9  Cc1ccc(C)c(OC2CCN(C(=O)c3ccc(O)nc3)CC2)c1  Shiga toxin 2 (Escherichia coli O157:H7) (UniProt P09385+P09386)      26.4
10       Cc1ccc(CN(CCCn2ccnc2)Cc2c[nH]cn2)s1  Shiga toxin 2 (Escherichia coli O157:H7) (UniProt P09385+P09386)     -13.7
11  O=C(COC(=O)Cc1cccs1)NCc1cccc(NC(=O)C2CC2)c1  Shiga toxin 2 (Escherichia coli O157:H7) (UniProt P09385+P09386)        28
12  CC(C)c1cc(NC(=O)CN2CCCC2Cn2cccn2)on1 (stereo not drawn)  Shiga toxin 2 (Escherichia coli O157:H7) (UniProt P09385+P09386)      29.8
13  CCn1ncc2c1CCCC2NCc1ccc(OC)c(C)c1 (stereo not drawn)  Shiga toxin 2 (Escherichia coli O157:H7) (UniProt P09385+P09386)     -11.4
14         COCCC(=O)N1CC2(CCN(Cc3ccoc3)C2)C1  Shiga toxin 2 (Escherichia coli O157:H7) (UniProt P09385+P09386)     -19.5
15     CS(=O)(=O)Cc1ccc(CNC(=O)c2cccnc2O)cc1  Shiga toxin 2 (Escherichia coli O157:H7) (UniProt P09385+P09386)     -14.2
16  CC(=O)NCC1CCN(C(=O)c2csc(-c3ccc(C)cc3C)n2)CC1  Shiga toxin 2 (Escherichia coli O157:H7) (UniProt P09385+P09386)        14
17  CNS(=O)(=O)c1cc(C(=O)NC2CCOc3ccccc32)cc(C)c1C (stereo not drawn)  Shiga toxin 2 (Escherichia coli O157:H7) (UniProt P09385+P09386)      3.19
18  Cc1ccc(Nc2nccc(C3CCCN(CC(=O)N(C)C)C3)n2)nc1 (stereo not drawn)  Shiga toxin 2 (Escherichia coli O157:H7) (UniProt P09385+P09386)     -28.3
19  CC(C)(C)c1nnc(CN2CCN(CC(O)c3ccccc3)CC2)o1 (stereo not drawn)  Shiga toxin 2 (Escherichia coli O157:H7) (UniProt P09385+P09386)      10.2
20  CN1CCC(CCNC(=O)c2ccc(N(C)S(C)(=O)=O)cc2Cl)CC1  Shiga toxin 2 (Escherichia coli O157:H7) (UniProt P09385+P09386)     -50.8
21  CN(C)CCO[C@@H]1CC[C@H]2[C@H]1OCCN2C(=O)CCc1ccccc1  Shiga toxin 2 (Escherichia coli O157:H7) (UniProt P09385+P09386)     -27.7
22  CNc1nc2c(s1)C(c1c(F)cccc1Cl)CC(=O)N2 (stereo not drawn)  Shiga toxin 2 (Escherichia coli O157:H7) (UniProt P09385+P09386)      3.13
23  CN1CC(c2ccccc2)CC12CCN(C(=O)c1ccc(F)cc1)CC2 (stereo not drawn)  Shiga toxin 2 (Escherichia coli O157:H7) (UniProt P09385+P09386)      11.8
